Record: MIC reported on Escherichia coli NIHJ-JC-2 (MS-1).

## Task Form field: MIC recorded for CCC1OC(=O)CC(O)C(C)C(OC2OC(C)C(OC3CC(C)(O)C(O)C(C)O3)C(N(C)C)C2O)C(CC=O)CC(C)C(=O)C=CC2(C)OC2C1C (stereo not shown) with Escherichia coli NIHJ-JC-2 (MS-1) (enter value)
## Result > 100 µg/mL

## Task Also need CCC1OC(=O)CC(O)C(C)C(OC2OC(C)C(OC3CC(C)(O)C(O)C(C)O3)C(N(C)C)C2O)C(CC=O)CC(C)C(=O)C=CC2(C)OC2C1(C)O (stereo not shown) , thanks.
## Result > 100 µg/mL

## Task Record: CO[C@@H]1[C@@H](O[C@@H]2O[C@H](C)[C@@H](O[C@H]3C[C@@](C)(O)[C@@H](OC(=O)CC(C)C)[C@H](C)O3)[C@H](N(C)C)[C@H]2O)[C@@H](CC=O)C[C@@H](C)[C@@H](O)/C=C/C=C/C[C@@H](C)OC(=O)C[C@H]1OC(C)=O [JM, josamycin, reference compound]
## Result > 100 µg/mL

## Task Would you kindly repeat that for CC[C@H]1OC(=O)[C@H](C)[C@@H](O[C@H]2C[C@@](C)(OC)[C@@H](O)[C@H](C)O2)[C@H](C)[C@@H](O[C@@H]2O[C@H](C)C[C@H](N(C)C)[C@H]2O)[C@](C)(O)C[C@@H](C)C(=O)[C@H](C)[C@@H](O)[C@]1(C)O [EM, erythromycin, reference compound] ?
## Result 100 µg/mL
